Catalogue of molecules with associated Rotamase activity % Control
- systemName: cyclophilin D (Homo sapiens)
- methodSummary: Rotamase activity (method of Kofron et al)
- Assay type: biochemical
- conditionsUsed: 50 μM
Please give a number only; it is taken to be in % Control.

Examples with their reported Rotamase activity % Control follow.
>  <molecule>
CC(C)C[C@H](NC(=O)OCc1ccccc1)C(=O)OC1=CC(=O)CC(C)(C)C1

>  <systemName>
cyclophilin D (Homo sapiens)

>  <readoutKind>
Rotamase activity % Control

>  <measuredNumber>
79

$$$$
>  <molecule>
CC(C)[C@H](NC(=O)OCc1ccccc1)C(=O)OC1=CC(=O)CC(C)(C)C1

>  <systemName>
cyclophilin D (Homo sapiens)

>  <readoutKind>
Rotamase activity % Control

>  <measuredNumber>
81

$$$$
>  <molecule>
CC(C)[C@H](NC(=O)OCc1ccccc1)C(=O)OC1=CC(=O)C(C)C(C)(C)C1 (some centres unmarked)

>  <systemName>
cyclophilin D (Homo sapiens)

>  <readoutKind>
Rotamase activity % Control

>  <measuredNumber>
78

$$$$
>  <molecule>
CC1(C)CC(=O)CC(=O)C1Cc1ccccc1 (centres unmarked)

>  <systemName>
cyclophilin D (Homo sapiens)

>  <readoutKind>
Rotamase activity % Control

>  <measuredNumber>
84

$$$$

Attention now turns to another entry.
Q: Recall the recorded Rotamase activity % Control for "CC1(C)CC(=O)C=C(N)C1" with cyclophilin D (Homo sapiens) and state it.
Result: 104

====

- systemName: cyclophilin D (Homo sapiens, UniProt P30405)
- Sequence (P30405 30-207): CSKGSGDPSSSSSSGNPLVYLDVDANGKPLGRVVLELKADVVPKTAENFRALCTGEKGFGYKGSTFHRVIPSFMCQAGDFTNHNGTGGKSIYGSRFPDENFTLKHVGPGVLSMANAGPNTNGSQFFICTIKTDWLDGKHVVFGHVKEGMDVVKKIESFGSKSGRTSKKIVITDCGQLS
- methodSummary: Rotamase activity (method of Kofron et al)
- Type: biochemical
- conditionsUsed: 200 μM
The following ranges of Rotamase activity % Control define the classes used here: class 0: < 50 % Control; class 1: ≥ 50 % Control and < 60 % Control; class 2: ≥ 60 % Control

Sample answers from the record:
>  <compound>
CC(C)[C@H](NC(=O)OCc1ccccc1)C(=O)OC1=CC(=O)CC(C)(C)C1

>  <classAssignment>
class 0

$$$$
>  <compound>
CC1(C)CC(=O)C=C(N)C1

>  <classAssignment>
class 2

$$$$
>  <compound>
COC(=O)[C@@H](NC1=CC(=O)CC(C)(C)C1)C(C)C

>  <classAssignment>
class 2

$$$$

Q: Could you tell me which band CC1(C)CC(=O)CC(=O)C1Cc1ccccc1 (centres unmarked) belongs to?
Result: class 2

Q: How about this compound: "CC1(C)CC(=O)C=C(OC(=O)[C@H](Cc2ccccc2)NC(=O)OCc2ccccc2)C1"
Result: class 0

Q: How about this compound: "CC(C)C[C@H](NC(=O)OCc1ccccc1)C(=O)OC1=CC(=O)CC(C)(C)C1"
Result: class 1

====

- systemName: Cyp-D Wild-type (Homo sapiens, UniProt P30405)
- methodSummary: Fluorescence titration: interaction with Cyclophilin D
readoutKind: pKd
The meaning of pKd here: minus log10 of the concentration in molar units.

Examples with their reported pKd follow.
>  <compound>
CC(C)[C@H](NC(=O)OCc1ccccc1)C(=O)OC1=CC(=O)CC(C)(C)C1

>  <pKd>
3.46

$$$$
>  <compound>
CC(C)C[C@H](NC(=O)OCc1ccccc1)C(=O)OC1=CC(=O)CC(C)(C)C1

>  <pKd>
3.94

$$$$
>  <compound>
CC1(C)CC(=O)C=C(OC(=O)[C@H](Cc2ccccc2)NC(=O)OCc2ccccc2)C1

>  <pKd>
3.81

$$$$
>  <compound>
CC(C)C(NC(=O)OCc1ccccc1)C(O)=C1C(=O)CC(C)(C)CC1=O (stereo not drawn)

>  <pKd>
3.69

$$$$
>  <compound>
CC1(C)CC(=O)CC(=O)C1Cc1ccccc1 (stereo not drawn)

>  <pKd>
3.77

$$$$

Attention now turns to another entry.
Q: pKd lookup needed for COC(=O)[C@H](Cc1ccccc1)NC(=C1C(=O)CC(C)(C)CC1=O)C(NC(=O)OCc1ccccc1)C(C)C (stereo partly drawn) , thanks.
Result: 3.96

====

Catalogue of compounds with associated Rotamase activity % Control
- systemName: cyclophilin D (Homo sapiens)
- methodSummary: Rotamase activity (method of Kofron et al)
- Format: biochemical
- conditionsUsed: 200 μM
Please give a number only; it is taken to be in % Control.

Examples with their reported Rotamase activity % Control follow.
>  <compound>
CC(C)[C@H](NC(=O)OCc1ccccc1)C(=O)OC1=CC(=O)C(C)C(C)(C)C1 (some centres unmarked) [EM 4/10/1]

>  <measuredNumber>
60

$$$$
>  <compound>
COC(=O)[C@H](Cc1ccccc1)NC(=C1C(=O)CC(C)(C)CC1=O)C(NC(=O)OCc1ccccc1)C(C)C (some centres unmarked) [EM 2/40]

>  <measuredNumber>
59

$$$$
>  <compound>
CC(C)C(NC(=O)OCc1ccccc1)C(O)=C1C(=O)CC(C)(C)CC1=O (centres unmarked) [EM 3/11/1]

>  <measuredNumber>
61

$$$$
>  <compound>
COC(=O)[C@@H](NC(=O)OCc1ccccc1)C(C)C [EM 3/27]

>  <measuredNumber>
60

$$$$

Q: Rotamase activity % Control lookup needed for CC(C)[C@H](NC(=O)OC(C)(C)C)C(=O)OC1=CC(=O)CC(C)(C)C1 [EM 3/29/1/1] , thanks.
Result: 50

These entries and their values trace back to patent US7223795B2.
